- Assayed System: T1, cynomolgus monkey SLITRK6 extracellular domain linked to his tag (cynomolgus monkey, UniProt G7PVK4 27-608)
- T1 construct: extracellular domain; also called cynoSLITRK6; Cyno SLITRK6; not shown: his tag
- Assay Info: BLI; antigen ECD-his on anti-his tips, antibody as analyte; 1:1 fit;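 also: antibody at several concentrations, 180 s association then 300 s dissociation in Tris buffer at pH 6 or 7.5, rate constants from global fitting, KD computed as koff/kon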
Decision: kon >= 600000 M⁻¹ s⁻¹ yields rule met, all other cases yield rule not met.

hu1H2-13 (antibody, V domains shown) VH: EVQLVESGGGLVQPGGSLRLSCAASGFTFSDYGLHWVRQAPGKGLEWVAYISSGSSTVYFADTLKGRFTISRDNAKNSLYLQMNSLRAEDTAVYYCTRGTWYFDVWGRGTLVTVSS VL: DIQMTQSPSSLSASVGDRVTITCRTSENIHSYLAWYQQKPGKSPQLLVYNAKTLADGVPSRFSGSGSGTDYTLTISSLQPEDFGTFYCQHFWTTSRTFGGGTKVEIK	rule not met
phA108 (antibody, V domains shown, From phage display, then full-length construction; Only the variable regions are tied to the name) VH: QVQLVQSGAEVKKPGASVKVSCTASGYIFNDYYLHWVRQAPGQGLEWVGIINPSGGSPVYAQKFQGRVTMTRDTSTNTVYMELSSLRSEDTAVYYCARGMVRGVRLFDYWGQGTLVTVSA VL: EIVLTQSPATLSLSPGERATLSCRASQSVSSYLAWYQQKPGQTPRLLIYDASNRATGVPARFSGSGSGTDFTLTISSLETEDFAVYYCQQRTNWPLTFGGGTKVEIK	rule met
hu14G1-03 (antibody, V domains shown) VH: EVQLVESGGGLVQPGGSLRLSCAASGFTFSDYGMHWVRQAPGKGLEWVSYISPGSSTIYYADTMKGRFTISRDNAKNSLYLQMNSLRAEDTAVYYCARAYGGSYWYFAVWGQGTLVTVSS VL: DIQMTQSPSSLSASVGDRVTITCRASGNIHSYLAWYQQKPGKSPQLLVYNAKTLADGVPSRFSGSGSGTDYTLTISSLQPEDFGTYYCQHFWSTPYTFGGGTKLEIK	rule not met
hu1H2-03 (antibody, V domains shown, see m20) VH: EVQLVESGGGLVQPGGSLRLSCAASGFTFSDYGLHWVRQAPGKGLEWVSYISSGSSTVYFADTLKGRFTISRDNAKNSLYLQMNSLRAEDTAVYYCTRGTWYFDVWGRGTLVTVSS VL: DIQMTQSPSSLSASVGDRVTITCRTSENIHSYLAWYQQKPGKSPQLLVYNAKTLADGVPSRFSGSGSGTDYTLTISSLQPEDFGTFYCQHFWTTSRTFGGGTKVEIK	rule not met
